Cell Viability (Average, two targets) values by entry
System: mammalian cells
Assay: Arrayed SSAP library screening, cell viability by live cell counts via flow cytometry
Format: cell-based
measurement-kind: Cell Viability (Average, two targets)

1. SSAP_211: SEQ ID NO: 380; unclassified Streptomyces (protein, listed as Streptomyces sp.) SQIGNAIATRDEGPAAQIEVYRDEYAALVPSHVNADQWVRLAVGAIRGNDDLLKAAGNDIGLFLREMKTAARLGLEPGTEQFYLTPRKSKAHGGRPVIKGIVGYQGIVELIYRAGAASTVIVEAVRQNDVFRYVPGRDDRPVHEIDWFGQDRGPLVGVYAYAVMKDGAVSKVVVLNKARVMELKAKSDSKNSPYSPWNTNEEAMWLKSGVRQLAKWVPTSAEFRRDQLLAHTDTADGVIASVSAPPLPPQSAALEDLDPDDEGPIDGELLDD
0.3563
2. SSAP_309: SEQ ID NO: 478; Paenibacillus sp. FSL R7-0333 (protein, listed as Paenibacillus sp.) TVAIELQVQETLDRILDSKHDALPSDFNKKRFSENCKAYVADEKDLHKYSPEEIAANLFKGAVLGLDFLAKECHLISGGVELKFQTDYKGEMKLTKKYSVRPLLDVYAKNVREGDEFREEVIEGRPVIHFAPLPFNASSIIGSFAVALFQDGGMVYESIPAGEIEEIRKNYGKSLGDAWDKSQGEMYKRTVLRRLCKTIETDFDAEQRLIYDAGGAFEFTKQPARSRQQSPFNPPEESEVTQDDRVAETDQG
0.9224
